# ASSAY_TEXT: chemical genetic growth profiling, strain panel (AID 1159580);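 note: tested at 20 µM; growth read once vehicle control cultures reached saturation at 30 °C; 1 = growth at the plate median or of vehicle wells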
# COND: S. cerevisiae deletion strains, growth OD, locus YDL101C, strain DUN1, stronger effect = lower value
Hit rate of the full screen: of about 5,500 compounds, about 2,000 (36%) were called active. Another 18% or so got no clear call; they are omitted. This is one part of the list.
Exercise: state measured normalized growth for each of the compounds provided.
Give only the figure.

Problem: Bench note: what normalized growth did "Cc1onc(-c2c(Cl)cccc2Cl)c1NC(=O)O/N=C\c1ccc(N(C)C)cc1" show?
Result: 0.978

Problem: Name the reported normalized growth value associated with the compound "Cc1cc(=O)n(-c2ccc([N+](=O)[O-])cc2)[nH]1"
Result: 0.955

Problem: Please give the measured normalized growth for this compound: "Oc1cccc(O)c1"
Result: 1

Problem: What normalized growth value was documented for this compound, "CCCSc1ccc2nc(NC(=O)OC)[nH]c2c1" ?
Result: 0.993

Problem: Any idea what normalized growth was measured for "CN(C)[C@@H]1C(=O)C(C(N)=O)=C(O)[C@@]2(O)C(=O)C3=C(O)c4c(O)ccc(Cl)c4[C@@](C)(O)[C@H]3C[C@@H]12" ?
Result: 1

Problem: What does the record list as normalized growth for CN(C)C1C(=O)C(C(N)=O)=C(O)C2(O)C(=O)C3=C(O)c4c(O)ccc(Cl)c4C(C)(O)C3CC12 (stereo not drawn) ?
Result: 0.995

Problem: Give its normalized growth value. Item: "CC[N+](C)(C)c1cccc(O)c1"
Result: 0.979

Problem: Requested read-out: normalized growth. Entry: "CCCOc1ccc2nc(NC(=O)OC)[nH]c2c1"
Result: 0.997

Problem: Can you look up the measured normalized growth of "NC(=S)CSc1ccccc1" for me?
Result: 1.01

Problem: // normalized growth lookup, key: "CNNC"
Result: 1.03

Problem: Find the recorded normalized growth belonging to "Cn1c(CSc2ccccc2)n[nH]c1=S" and report it.
Result: 0.994

Problem: What normalized growth value was documented for this compound, "CC1=CC(=O)c2ccccc2C1=O" ?
Result: 0.0567

Problem: Name the reported normalized growth value associated with the compound "NNCc1cccc(O)c1"
Result: 0.994

* * *

# ASSAY_TEXT: chemical genetic growth profiling, strain panel (AID 1159580);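 note: tested at 20 µM; growth read once vehicle control cultures reached saturation at 30 °C; 1 = growth at the plate median or of vehicle wells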
# COND: S. cerevisiae deletion strains, growth OD, locus YER155C, strain BEM2 (second series), stronger effect = lower value
The whole screen tested about 5,500 compounds, of which about 2,000 (36%) were called active. Not shown: some 18% with an inconclusive outcome. This is one part of the list.
ATTRIBUTE_MEASURED: normalized growth
Please give only the number in your answer, with no unit.

Problem: Suppose we examine the compound CC(=O)O[C@@H]1C=C[C@@]2(C)C(C[C@@H](OC(C)=O)[C@@]3(C)C4=CC(=O)O[C@@H](c5ccoc5)[C@]4(C)CCC23)C1(C)C (stereo not given in full) ; what normalized growth value has been reported?
Result: 1.01

Problem: Form field: reported normalized growth of "CC(=O)Nc1ccc(S(=O)(=O)Nc2onc(C)c2C)cc1"
Result: 0.971

Problem: GET /values?readout=normalized growth&item= "CN(C)C(=O)Oc1cccc([N+](C)(C)C)c1"
Result: 1.01

Problem: // query normalized growth value for entry CC(C)CCCC(C)[C@H]1CCC2C3CC=C4C[C@@H](O)CC[C@]4(C)C3CC[C@@]21C (stereo not given in full)
Result: 0.984

Problem: May I ask what normalized growth has been recorded for CC(=O)O[C@H]1CC[C@@]2(C)C(C[C@@H](OC(C)=O)[C@@]3(C)C4=CC(=O)O[C@@H](c5ccoc5)[C@]4(C)CCC23)C1(C)C (stereo not given in full) ?
Result: 0.992

Problem: Using the record for CC(CCc1ccccc1)NCC(O)c1ccc(O)c(C(N)=O)c1 (stereo not given) , report its normalized growth.
Result: 1.01

Problem: Recorded normalized growth for CC(C)CCCC(C)C1CCC2C3=CC[C@H]4C[C@@H](O)CC[C@]4(C)C3CC[C@@]21C (stereo not given in full) , please?
Result: 0.973

Problem: Request the reported normalized growth associated with "COC(=O)c1c(C)c2c(c(C)c1O)OC(=O)c1c(C)c(Cl)c(O)c(Cl)c1O2"
Result: 0.97

Problem: Can you share its normalized growth? I mean this compound: CC(C)(C)NCC(O)c1ccc(O)c(CO)c1 (stereo not given)
Result: 0.982

Problem: Consider the compound shown here: "CS(=O)(=O)c1ccc([C@@H](O)[C@@H](CO)NC(=O)C(Cl)Cl)cc1" What is its recorded normalized growth?
Result: 1.03

Problem: Recorded normalized growth for "O=C(O)C1=CCCNC1" , please?
Result: 0.959

Problem: Need normalized growth, item CC(C)CCCC(C)C1CCC2C3C[C@@H](O)[C@@]4(O)C[C@@H](O)CC[C@]4(C)C3CC[C@]12C (stereo not given in full)
Result: 0.972

Problem: What does the data say about its normalized growth? Entry: CC(C)CCCC(C)[C@H]1CCC2C3CC=C4CC(=O)CC[C@]4(C)C3CC[C@@]21C (stereo not given in full)
Result: 1.01

Problem: Give the measured normalized growth of CC(Cc1cccc(C(F)(F)F)c1)NCCOC(=O)c1ccccc1 (stereo not given) .
Result: 0.934

Problem: Can you share its normalized growth? I mean this compound: "CC(=O)N[C@@H](Cc1c[nH]c2ccccc12)C(N)=O"
Result: 1.06

Problem: Consider the compound shown here: "CC(=O)Oc1ccc(C(c2ccc(OC(C)=O)cc2)c2ccccn2)cc1" What is its recorded normalized growth?
Result: 1.03

Problem: What value of normalized growth has been reported for the following compound? "COC(=O)c1c(OC)cc2c(c1C)Oc1c(Cl)c(O)c(Cl)c(C)c1C(=O)O2"
Result: 0.997

Problem: Fill in: normalized growth of "C=C1C[C@]23C[C@@]1(O)CC[C@H]2[C@@]12C=C[C@H](O)[C@@](C)(C(=O)O1)[C@H]2[C@@H]3C(=O)O" is ___
Result: 1

Problem: For the compound NC(Cn1ccc(=O)c(O)c1)C(=O)O (stereo not given) , what normalized growth is on record?
Result: 1.01

Problem: I have this compound here, "CC(=O)Oc1cccc(O)c1" , and I need its recorded normalized growth.
Result: 1.02
